Molecular target: T1, biotinylated GITR (human, UniProt Q9Y5U5 26-161, limits assumed, biotinylated (sites not given))
T1 construct: also called GITR-bio; Biotin-GITR
T1 sequence: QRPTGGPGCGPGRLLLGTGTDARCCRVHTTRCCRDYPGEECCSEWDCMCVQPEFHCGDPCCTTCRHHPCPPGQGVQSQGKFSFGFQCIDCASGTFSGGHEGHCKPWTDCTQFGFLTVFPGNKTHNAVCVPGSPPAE
Experiment: BLI (Octet), biotin-GITR on streptavidin tips, antibody supernatant
// classify: if (koff < 0.0004 s⁻¹) condition met else condition not met

Example entries begin here.
{"columns": ["binder", "label class"],
 "data": [
  ["germline variant antibody 16 (H1916B06 / K1916B06) (antibody, V domains shown, IGHG1/IGKC expression vectors; measured from CHO culture supernatant; also called Antibody ID 16) VH: QVQLVQSGTEVKKPGASVKVSCKASGYTFTGYAMYWVRQAPGQGLEWIGLIRTFSGGVTYNQKFRERVTMTVDKSISTAYMELSRLRSDDTAVYYCAKSGTVRGFAYWGQGTLVTVSS VL: DIVMTQSPDSLAVSLGERATINCKSSQSLLNSGNQKNYLTWYHQKPGQPPKLLIYWASTRESGVPDRFTGSGSGTDFTLTISSVQAEDVAVYHCQNDYSYPYTFGQGTKLEIK", "condition not met"],
  ["germline variant antibody 47 (H1916E08 / K1916E08) (antibody, V domains shown, IGHG1/IGKC expression vectors; measured from CHO culture supernatant; also called Antibody ID 47) VH: QVQLVQSGAEVKKPGASVKVSCKASGYTFTDYAMYWVRQAPGQGMEWMGVIRTYSGGVTYNQKFRDRVTMTVDKSISTAYMELSRLRSDDTAVYYCAKSGTVRGFADWGQGTLVTVSS VL: DIVMTQSPDSLAVSLGERATINCKSSQSLLNSGNQKNYLSWYQQKPGQPPKLLIYWASTRESGVPDRFTGSGSGTDFTLTISSVQAEDVAVYHCQNDYSFPYTFGQGTKLEIK", "condition not met"],
  ["germline variant antibody 2 (H1916A03 / K1916A03) (antibody, V domains shown, IGHG1/IGKC expression vectors; measured from CHO culture supernatant; also called Antibody ID 2) VH: QVQLVQSGAEVKKPGASVKVSCKASGYTFTEYAMHWVRQAPGQGMEWIGLIRTYSGGVSYNQKFRGRATMTVDKSISTAYMELSRLRSDDTAVYYCAKSGTVRGFAYWGQGTLVTVSS VL: DIVMTQSPDSLAVSLGERATINCKSSQSLLNSGNQKNYLSWYHQKPGQPPKLLIYWASTRESGVPDRFSGSGSGTDFTLTISSVQAEDVAVYYCQNEYSFPYTFGQGTKLEIK", "condition not met"],
  ["germline variant antibody 79 (H1917D04 / K1917D04) (antibody, V domains shown, IGHG1/IGKC expression vectors; measured from CHO culture supernatant; also called Antibody ID 79) VH: QVQLVQSGTEVKKPGASVKVSCKGSGYTFTEYAMHWVRQAPGQGMEWMGLIRTYSGGVTYNQKFRERVTMTVDKSISTAYMELSRLRSDDTAVYYCAKSGTVRGFAYWGQGTLVTVSS VL: DIVMTQSPDSLAVSLGERATINCKSSQSLLNSGNQKNYLTWYHQKPGQPPKMLIYWASTRESGVPDRFSGSGSGTDFTLTISSLQAEDVAVYYCQNDYSYPYTFGQGTKLEIK", "condition not met"]
]}

Answer whether the binder germline variant antibody 42 (H1916E01 / K1916E01) (antibody, V domains shown, IGHG1/IGKC expression vectors; measured from CHO culture supernatant; also called Antibody ID 42) VH: QVQLVQSGTEVKKPGASVKVSCKASGYTFTDYAMYWVRQAPGQGLEWIGVIRTFSGDLTYNQKFQDRVTMTVDTSISTAYMELSRLRSDDTAVYYCAKSGTVRGFAYWGQGTLVTVSS VL: DIVMTQSPDSLAVSLGERATINCKSSQSLLNSGNQKNYLSWYQQKPGQPPKLLIYWASTRESGVPDRFSGSGSGTDFTLTISSLQAEDVAVYYCQNDYSYPYTFGQGTKLEIK has koff strictly less than 0.0004 s⁻¹
condition met

Answer whether the binder germline variant antibody 52 (H1916F05 / K1916F05) (antibody, V domains shown, IGHG1/IGKC expression vectors; measured from CHO culture supernatant; also called Antibody ID 52) VH: QVQLVQSGTEVKKPGASVKVSCKGSGYTFTDYAMYWVRQAPGQGLEWMGLIRTYSGGVSYNQKFRERVTMTVDKSISTAYMELSRLRSDDTAVYYCAKSGTVRGFAYWGQGTLVTVSS VL: DIVMTQSPDSLAVSLGERATINCKSSQSLLNSGNQKNYLTWYQQKPGQPPKLLIYWASTRESGVPDRFSGSGSGTDFTLTISSLQAEDVAVYHCQNDYSFPYTFGQGTKLEIK has koff strictly less than 0.0004 s⁻¹
condition not met

Answer whether the binder germline variant antibody 101 (H1917H01 / K1917H01) (antibody, V domains shown, IGHG1/IGKC expression vectors; measured from CHO culture supernatant) VH: QVQLVQSGAEVKKPGASVKVSCKASGYTFTDYAMHWVRQAPGQGLEWMGLIRTFSGGVSYNQKFQDRVTMTVDKSISTAYMELSRLRSDDTAVYYCAKSGTVRGFAYWGQGTLVTVSS VL: DIVMTQSPDSLAVSLGERATINCKSSQSLLNSSNQKNYLTWYHQKPGQPPKLLIYWASTRESGVPDRFSGSGSGTDFTLTISSVQAEDVAVYHCQNDYSFPYTFGQGTKLEIK has koff strictly less than 0.0004 s⁻¹
condition met

Answer whether the binder germline variant antibody 34 (H1916D04 / K1916D04) (antibody, V domains shown, IGHG1/IGKC expression vectors; measured from CHO culture supernatant; also called Antibody ID 34) VH: QVQLVQSGAEVKKPGASVKVSCKASGYTFTDYAMYWVRQAPGQGMEWIGVIRTFSGGVTYNQKFRGRVTMTVDTSISTAYMELSRLRSDDTAVYYCAKSGTVRGFAYWGQGTLVTVSS VL: DIVMTQSTDSLAVSLGERATINCKSSQSLLNSSNQKNYLTWYQQKPGQPPKLLIYWASTRESGVPDRFTGSGSGTDFTLTISSLQAEDVAVYHCQNDYSYPYTFGQGTKLEIK has koff strictly less than 0.0004 s⁻¹
condition met

Answer whether the binder germline variant antibody 5 (H1916A06 / K1916A06) (antibody, V domains shown, IGHG1/IGKC expression vectors; measured from CHO culture supernatant; also called Antibody ID 5) VH: QVQLVQSGAEVKKPGASVKVSCKGSGYTFTEYAMHWVRQAPGQGLEWMGLIRTYSGGVTYNQKFRGRVTMTVDTSISTAYMELSRLRSDDTAVYYCAKSGTVRGFAYWGQGTLVTVSS VL: DIVMTQSPDSLAAPGERATINCKSSQSLLNSSNQKNYLTWYHQKPGQPPKLLIYWASTRESGVPDRFTGSGSGTDFTLTISSVQAEDVAVYYCQNEYSFPYTFGQGTKLEIK has koff strictly less than 0.0004 s⁻¹
condition not met

Answer whether the binder germline variant antibody 11 (H1916Al2 / K1916A12) (antibody, V domains shown, IGHG1/IGKC expression vectors; measured from CHO culture supernatant; also called Antibody ID 11) VH: QVQLVQSGAEVKKPGASVKVSCKGSGYTFTDYAMHWVRQAPGQGLEWMGLIRTYSGGVSYNQKFRGRVTMTVDTSISTAYMELSRLRSDDTAVYYCAKSGTVRGFAYWGQGTLVTVSS VL: DIVMTQSPDSLAVSLGERATINCKSSQSLLNSSNQKNYLSWYQQKPGQPPKLLIYWASTRESGVPDRFSGSGSGTDFTLTISSVQAEDVAVYHCQNDYSFPYTFGQGTKLEIK has koff strictly less than 0.0004 s⁻¹
condition not met
